System: Ba/F3-Syk cells (Homo sapiens, UniProt P43405)
Construct: fused on or other part: Possible but unprinted fusion partner: TEL (ETV6), the usual partner for Ba/F3 lines transformed by Syk; Nothing on a partner is printed
Test Description: Ba/F3 Proliferation Assay, Ba/F3-Syk cells (Resazurin)
Condition Notes: 48-hour incubation
Quantity Measured: EC50 (nM)

Compound	System	EC50, nM
CC(C)n1ccc(-c2cc(OC[C@@H]3CNCC4(CCC4)O3)c3nccnc3c2)c1 [Compound 8.17]	Ba/F3-Syk cells (Homo sapiens, UniProt P43405)	4.3

[A] FC(F)Cn1cc(-c2cc3ncccc3c(OC[C@@H]3CNCCCO3)n2)cn1 [Compound 6.27]
[B] CCn1ccc(-c2cc3ncccc3c(OC[C@@H]3CNCCCO3)n2)c1 [Compound 6.26]
[C] Cn1ccc(-c2cc(OC[C@@H]3CNCCCO3)c3cccnc3c2)c1 [Compound 3.22]
input: Order the records so the highest EC50 appears first and the lowest last. // respond by listing labels in the order requested
output: C, A, B

[A] C[C@@H](Oc1nc(-c2ccn(CC(F)F)c2)cc2ncccc12)[C@@H]1CNCCO1 [Compound 6.30]
[B] C[C@@H](Oc1nc(-c2ccn(C)c2)cc2ncccc12)[C@@H]1CNCCO1 [Compound 2.44]
input: Could you tell me which of A and B has the lower EC50 reading? # reply format: chosen label
output: A
(A: 27.7 nM, B: 53.1 nM)

[a] CC(C)n1ccc(-c2cc(OC[C@@H]3CNCC4(CC4)O3)c3cccnc3c2)c1 [Compound 7.13]
[b] Cc1cc(-c2cc(OC[C@@H]3CNCCO3)c3cccnc3c2)cs1 [Compound 3.7]
input: Select the item whose EC50 value is smaller, choosing between a and b . Let me know the label of the one you choose.
output: a

###

System: Ba/F3-Syk cells (Homo sapiens)
Construct: fused on or other part: Possible but unprinted fusion partner: TEL (ETV6), the usual partner for Ba/F3 lines transformed by Syk; Nothing on a partner is printed
Test Description: Ba/F3 Proliferation Assay, Ba/F3-Syk cells (Resazurin)
Condition Notes: 48-hour incubation
Quantity Measured: EC50 (nM)

Molecule	Unit Label	EC50
c1cnc2cc(-c3cnn(CC4CC4)c3)nc(OC[C@@H]3CNCCO3)c2c1 [Compound 6.12]	nM	66.7

[a] CC(C)(C)n1cc(-c2cc3ncccc3c(OC[C@@H]3CNCC(F)(F)CO3)n2)cn1 [Compound 2.86]
[b] C[C@@H](Oc1nc(-c2ccn(C)c2)cc2ncccc12)[C@@H]1CNCC(C)(C)O1 [Compound 2.65]
[c] CC(C)(C)[C@H]1CNC[C@@H](COc2nc(-c3cnn(C(C)(C)C)c3)cc3ncccc23)O1 [Compound 2.100]
[d] CC(C)(C)n1cc(-c2cc3ncccc3c(OC[C@@H]3CNCCCO3)n2)cn1 [Compound 2.49]
[e] CC1(C)CNC[C@@H](COc2nc(-c3ccn(CC(F)F)c3)cc3ncccc23)O1 [Compound 6.13]
input: List by increasing EC50. Ranked list of labels, please, in the requested order.
output: b, e, d, c, a
(b: 11.7 nM, e: 21.8 nM, d: 47.1 nM, c: 362 nM, a: 2160 nM)

[I] FC(F)(F)n1cc(-c2cc3ncccc3c(OC[C@@H]3CNCCO3)n2)cn1 [Compound 2.16]
[II] CC1(C)CNC[C@@H](COc2nc(-c3cnn(C4(C)CCC4)c3)cc3ncccc23)O1 [Compound 2.87]
input: Sorting by EC50 in descending order, would I or II appear first? Indicate which entry you chose by stating its label.
output: I
(I: 493 nM, II: 11.2 nM)

[1] Clc1csc(-c2cc3ncccc3c(OC[C@@H]3CNCCO3)n2)c1 [Compound 2.34]
[2] CCn1ccc(-c2cc3ncccc3c(O[C@H](C)[C@@H]3CNCCO3)n2)c1 [Compound 6.31]
[3] CC(C)n1cc(-c2cc(OC[C@@H]3CNC[C@@H](C)O3)c3cccnc3c2)cn1 [Compound 3.23]
[4] C[C@@H]1CNC[C@@H](COc2cc(-c3ccn(C)c3)cc3ncccc23)O1 [Compound 3.24]
input: Order the items by recorded EC50; the first position goes to the largest value. Your reply should list the labels following the order given in the request.
output: 1, 2, 4, 3
(1: 394 nM, 2: 49.4 nM, 4: 28.2 nM, 3: 12.1 nM)
